# Test system: T1, IFN-α4a (human, UniProt P05014 24-189)
# T1 construct: also called IFN-αM1
# Assay comment: ProteOn, one antigen concentration
List of Kd values.
Just the number in nM, nothing appended.

These recorded examples may help you get a feel for the data.
{"Binder": "IFWM3322 (antibody, V domains shown, VH IFWH591, VL IFWL1051; converted mAb; also called IFWB3057) VH: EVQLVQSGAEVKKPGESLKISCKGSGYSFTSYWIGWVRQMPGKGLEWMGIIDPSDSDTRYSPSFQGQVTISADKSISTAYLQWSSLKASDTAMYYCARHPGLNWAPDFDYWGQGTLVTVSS VL: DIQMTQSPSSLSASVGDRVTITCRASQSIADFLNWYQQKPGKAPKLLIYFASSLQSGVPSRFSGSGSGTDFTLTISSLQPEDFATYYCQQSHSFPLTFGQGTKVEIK", "Reading": 0.272}
{"Binder": "IFWM3313 (antibody, V domains shown, VH IFWH591, VL IFWL1013; converted mAb; also called IFWB3048) VH: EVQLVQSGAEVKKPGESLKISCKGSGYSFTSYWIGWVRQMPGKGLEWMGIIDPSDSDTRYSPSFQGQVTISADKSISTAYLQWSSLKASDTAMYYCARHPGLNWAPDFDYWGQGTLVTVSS VL: DIQMTQSPSSLSASVGDRVTITCRASQSINNFLNWYQQKPGKAPKLLIYFASSLQSGVPSRFSGSGSGTDFTLTISSLQPEDFATYYCQQSFNLPITFGQGTKVEIK", "Reading": 0.354}
{"Binder": "IFWM3323 (antibody, V domains shown, VH IFWH591, VL IFWL1053; converted mAb; also called IFWB3058) VH: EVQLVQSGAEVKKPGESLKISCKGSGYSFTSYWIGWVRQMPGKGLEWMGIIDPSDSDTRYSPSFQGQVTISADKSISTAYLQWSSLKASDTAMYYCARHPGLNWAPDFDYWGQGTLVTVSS VL: DIQMTQSPSSLSASVGDRVTITCRASQSITNHLNWYQQKPGKAPKLLIYFASSLQSGVPSRFSGSGSGTDFTLTISSLQPEDFATYYCQQAHNFPLTFGQGTKVEIK", "Reading": 0.337}
{"Binder": "IFWM3355 (antibody, V domains shown, VH IFWH624, VL IFWL1022; converted mAb; also called IFWB3090) VH: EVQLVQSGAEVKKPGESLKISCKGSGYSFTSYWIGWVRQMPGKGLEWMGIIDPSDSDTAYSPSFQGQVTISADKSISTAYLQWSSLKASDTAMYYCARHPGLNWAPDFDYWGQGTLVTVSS VL: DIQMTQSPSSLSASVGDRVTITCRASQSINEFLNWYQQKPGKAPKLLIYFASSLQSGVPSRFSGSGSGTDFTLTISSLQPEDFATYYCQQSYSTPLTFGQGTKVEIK", "Reading": 0.122}

Please examine the following record next.
The binder identified as IFWM3302 (antibody, V domains shown, VH IFWH591, VL IFWL991; converted mAb; also called IFWB3037) VH: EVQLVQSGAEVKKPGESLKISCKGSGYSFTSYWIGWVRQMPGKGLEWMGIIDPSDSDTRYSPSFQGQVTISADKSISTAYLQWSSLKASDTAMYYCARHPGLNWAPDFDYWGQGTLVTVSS VL: DIQMTQSPSSLSASVGDRVTITCRASQSINRFLNWYQQKPGKAPKLLIYAASSLQSGVPSRFSGSGSGTDFTLTISSLQPEDFATYYCQQAIDLPFTFGQGTKVEIK registered its Kd at 0.268
